Assay: ATG_NRF2_ARE_CIS: Attagene CIS-FACTORIAL HepG2 Assay for human Nuclear Factor Erythroid 2 Related Factor 2 (NFR2) response to Antioxidant Response Elements (ARE) (AID 2282992)
Settings: HepG2 Attagene ARE/NRF2 reporter, transcription factor activity; actives raise or lower the signal
Activity calls are given as the source filed them. The calls were made as follows: active = hit-call score of the fitted dose curve at least 0.9, where 1 is the maximum; inactive = score below 0.9.
Pick one and only one: active, inactive

Below are worked cases with known answers.
CCOP(=S)(OCC)Oc1cc(C)nc(C(C)C)n1: active
CCOP(=S)(OCC)OC(Cl)C(Cl)(Cl)Cl (stereo unspecified): active
CCCSP(=O)(OCC)SCCC: active
C#CC(C)(C)NC(=O)c1cc(Cl)cc(Cl)c1: active
CN1COCN(Cc2cnc(Cl)s2)C1=N[N+](=O)[O-]: inactive
FC(F)C(F)(F)OCC(Cn1cncn1)c1ccc(Cl)cc1Cl (stereo unspecified): active
CCOP(=S)(OCC)Oc1ccc2c(C)c(Cl)c(=O)oc2c1: active
COc1cc(OC)nc(Sc2cccc(Cl)c2C(=O)O)n1: inactive

# outcome recorded in this test, key = `C[N+]1(C)CCCCC1`
inactive

How was `CCCCN(CC)c1c([N+](=O)[O-])cc(C(F)(F)F)cc1[N+](=O)[O-]` classified in this test?
active

Record request — test call for `CC(C)[C@H](C(=O)O[C@H](C#N)c1cccc(Oc2ccccc2)c1)c1ccc(Cl)cc1`
active
